TD50 at 2 h values for the compounds below.
- Procedure Summary: Emetic activity in dogs
- Assay type: in vivo, dog (male beagle)
- Experimental Setup: dog, in vivo, iv, methane-sulphonic salt, observed 2 hours, approximate (.congruent.); read-out: ED50, emetic activity
Measured Property: TD50 at 2 h

{"columns": ["Compound", "Endpoint Result"],
 "data": [
  ["CN1C[C@H](CNC(=O)OCc2ccccc2)C[C@@H]2c3cccc4c3c(cn4C)C[C@H]21 [Metergoline]", "> 8 mg/kg"],
  ["CN1C[C@H](CNC(=O)OCc2ccccc2)C[C@@H]2c3cccc4[nH]cc(c34)C[C@H]21 [1-Demethyl-metergoline]", "0.05 to 0.1 mg/kg"],
  ["CC(C)C[C@H]1C(=O)N2CCC[C@H]2[C@]2(O)O[C@](NC(=O)[C@@H]3C=C4c5cccc6[nH]c(Br)c(c56)C[C@H]4N(C)C3)(C(C)C)C(=O)N12 [Bromocriptine, 2-Br-α-ergocriptine, reference compound]", "~0.007 mg/kg"]
]}
